All figures here come from paper PMC8431030.

# Target of assay: COX-2 (Homo sapiens, UniProt P35354)
# Construct: gene PTGS2; kit is understood to hold human recombinant COX-2 (docking used PDB 4M11, not the assay protein)
# Test description: colorimetric COX peroxidase assay (Cayman […]), […] nm
# Type: biochemical
# Particulars: read-out: IC50 [μM] (SD) / COX-2
Reported values of IC50 for individual entries
Property measured: IC50

{"columns": ["Cpd smiles", "Property measured", "Test value"],
 "data": [
  ["Cc1ccc(C)c(N2CCN(C(=O)CSc3nnc(COc4nn(C)c(=O)c5c(C)n(-c6ccccc6)c(C)c45)o3)CC2)c1", "IC50", "50.1 µM"],
  ["CCCCn1c(C)c2c(OCc3n[nH]c(=S)o3)nn(C)c(=O)c2c1C", "IC50", "63.4 µM"],
  ["Cc1c2c(OCc3nnc(SCC(=O)N4CCN(c5ccc(F)cc5F)CC4)o3)nn(C)c(=O)c2c(C)n1-c1ccccc1", "IC50", "50.2 µM"],
  ["Cc1ccc(C)c(N2CCN(Cn3nc(COc4nn(C)c(=O)c5c(C)n(-c6ccccc6)c(C)c45)oc3=S)CC2)c1", "IC50", "49.7 µM"]
]}

====

# Target of assay: COX-2 (Homo sapiens)
# Construct: gene PTGS2; kit is understood to hold human recombinant COX-2 (docking used PDB 4M11, not the assay protein)
# Sequence (P35354 18-604): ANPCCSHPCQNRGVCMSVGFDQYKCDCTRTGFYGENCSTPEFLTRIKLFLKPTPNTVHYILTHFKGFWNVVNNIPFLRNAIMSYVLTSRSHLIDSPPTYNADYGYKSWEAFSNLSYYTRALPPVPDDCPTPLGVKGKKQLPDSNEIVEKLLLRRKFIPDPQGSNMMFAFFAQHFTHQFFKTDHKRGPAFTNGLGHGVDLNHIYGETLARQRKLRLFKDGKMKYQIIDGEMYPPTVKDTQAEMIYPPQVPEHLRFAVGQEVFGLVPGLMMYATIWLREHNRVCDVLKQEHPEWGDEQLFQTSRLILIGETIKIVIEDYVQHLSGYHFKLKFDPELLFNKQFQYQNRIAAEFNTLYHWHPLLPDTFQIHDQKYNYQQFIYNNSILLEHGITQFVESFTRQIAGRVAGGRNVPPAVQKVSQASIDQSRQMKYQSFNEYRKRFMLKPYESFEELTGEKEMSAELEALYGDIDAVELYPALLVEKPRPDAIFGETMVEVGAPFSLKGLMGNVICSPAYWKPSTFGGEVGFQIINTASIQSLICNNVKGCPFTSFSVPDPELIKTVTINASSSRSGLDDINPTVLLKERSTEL
# Test description: colorimetric COX peroxidase assay (Cayman […]), […] nm
# Format: biochemical
# Particulars: read-out: IC50 [μM] (SD) / COX-2
Kindly apply the following: class 1 if IC50 is less than 50 µM, class 0 in every other case.

{"columns": ["Cpd smiles", "Assigned label"],
 "data": [
  ["CCCCn1c(C)c2c(OCc3nnc(SCC(=O)N4CCN(c5cc(C)ccc5C)CC4)o3)nn(C)c(=O)c2c1C", "class 0"],
  ["CCCCn1c(C)c2c(OCc3nn(CN4CCN(c5ccc(F)cc5F)CC4)c(=S)o3)nn(C)c(=O)c2c1C", "class 0"],
  ["CCCCn1c(C)c2c(OCc3nn(CN4CCN(c5ccc(Cl)c(Cl)c5)CC4)c(=S)o3)nn(C)c(=O)c2c1C", "class 0"],
  ["Cc1c2c(OCc3n[nH]c(=S)o3)nn(C)c(=O)c2c(C)n1-c1ccccc1", "class 1"]
]}

====

Reported values of IC50 for individual entries
# Target of assay: COX-1 (Ovis aries, UniProt P05979)
# Construct: gene PTGS1; kit is understood to hold ovine COX-1
# Sequence (P05979 25-600): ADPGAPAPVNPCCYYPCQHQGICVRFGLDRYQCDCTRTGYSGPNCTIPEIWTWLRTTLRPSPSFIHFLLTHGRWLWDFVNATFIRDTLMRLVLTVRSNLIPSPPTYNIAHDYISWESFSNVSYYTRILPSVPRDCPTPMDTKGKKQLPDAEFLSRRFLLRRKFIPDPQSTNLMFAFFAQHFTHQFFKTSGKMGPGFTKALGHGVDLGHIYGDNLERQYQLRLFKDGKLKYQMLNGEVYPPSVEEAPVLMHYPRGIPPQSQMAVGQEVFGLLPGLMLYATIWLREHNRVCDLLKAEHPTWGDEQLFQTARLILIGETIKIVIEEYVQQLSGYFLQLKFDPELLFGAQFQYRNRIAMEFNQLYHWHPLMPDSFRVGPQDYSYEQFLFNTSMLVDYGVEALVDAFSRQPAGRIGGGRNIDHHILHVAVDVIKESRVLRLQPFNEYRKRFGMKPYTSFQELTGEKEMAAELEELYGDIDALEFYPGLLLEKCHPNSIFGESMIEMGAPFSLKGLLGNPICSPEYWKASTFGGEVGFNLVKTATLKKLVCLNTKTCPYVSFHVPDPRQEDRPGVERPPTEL
# Test description: colorimetric COX peroxidase assay (Cayman […]), […] nm
# Type: biochemical
# Particulars: read-out: IC50 [μM] (SD) / COX-1
Property measured: IC50 (µM)

{"columns": ["Compound", "Test value"],
 "data": [
  ["CCCCn1c(C)c2c(OCc3nnc(SCC(=O)N4CCN(c5ccc(Cl)c(Cl)c5)CC4)o3)nn(C)c(=O)c2c1C [7b]", 50.9],
  ["CCCCn1c(C)c2c(OCc3nn(CN4CCN(c5ccc(F)cc5F)CC4)c(=S)o3)nn(C)c(=O)c2c1C [3b]", 54.3],
  ["CCCCn1c(C)c2c(OCc3nn(CN4CCN(c5cc(C)ccc5C)CC4)c(=S)o3)nn(C)c(=O)c2c1C [2b]", 50],
  ["Cc1c2c(OCc3n[nH]c(=S)o3)nn(C)c(=O)c2c(C)n1-c1ccccc1 [1a]", 130],
  ["Cc1ccc(C)c(N2CCN(Cn3nc(COc4nn(C)c(=O)c5c(C)n(-c6ccccc6)c(C)c45)oc3=S)CC2)c1 [2a]", 50.3],
  ["CCCCn1c(C)c2c(OCc3nnc(SCC(=O)N4CCN(c5ccc(F)cc5F)CC4)o3)nn(C)c(=O)c2c1C [6b]", 51.1],
  ["CCCCn1c(C)c2c(OCc3n[nH]c(=S)o3)nn(C)c(=O)c2c1C [1b]", 138],
  ["Cc1c2c(OCc3nn(CN4CCN(c5ccc(Cl)c(Cl)c5)CC4)c(=S)o3)nn(C)c(=O)c2c(C)n1-c1ccccc1 [4a]", 50.2],
  ["Cc1c2c(OCc3nnc(SCC(=O)N4CCN(c5ccc(Cl)c(Cl)c5)CC4)o3)nn(C)c(=O)c2c(C)n1-c1ccccc1 [7a]", 51.6],
  ["Cc1ccc(C)c(N2CCN(C(=O)CSc3nnc(COc4nn(C)c(=O)c5c(C)n(-c6ccccc6)c(C)c45)o3)CC2)c1 [5a]", 53.2]
]}

====

# Target of assay: COX-1 (Ovis aries, UniProt P05979)
# Construct: gene PTGS1; kit is understood to hold ovine COX-1
# Test description: colorimetric COX peroxidase assay (Cayman […]), […] nm
# Assay type: biochemical
# Particulars: read-out: IC50 [μM] (SD) / COX-1

{"columns": ["Compound", "Target of assay", "Unit tag", "IC50"],
 "data": [
  ["Cc1c2c(OCc3nnc(SCC(=O)N4CCN(c5ccc(F)cc5F)CC4)o3)nn(C)c(=O)c2c(C)n1-c1ccccc1 [6a]", "COX-1 (Ovis aries, UniProt P05979)", "µM", 52.3],
  ["CCCCn1c(C)c2c(OCc3nn(CN4CCN(c5ccc(Cl)c(Cl)c5)CC4)c(=S)o3)nn(C)c(=O)c2c1C [4b]", "COX-1 (Ovis aries, UniProt P05979)", "µM", 56.8],
  ["Cc1c2c(OCc3nn(CN4CCN(c5ccc(F)cc5F)CC4)c(=S)o3)nn(C)c(=O)c2c(C)n1-c1ccccc1 [3a]", "COX-1 (Ovis aries, UniProt P05979)", "µM", 50.3],
  ["CCCCn1c(C)c2c(OCc3nnc(SCC(=O)N4CCN(c5cc(C)ccc5C)CC4)o3)nn(C)c(=O)c2c1C [5b]", "COX-1 (Ovis aries, UniProt P05979)", "µM", 51.8]
]}

====

# Target of assay: COX-2 (Homo sapiens, UniProt P35354)
# Construct: gene PTGS2; kit is understood to hold human recombinant COX-2 (docking used PDB 4M11, not the assay protein)
# Test description: colorimetric COX peroxidase assay (Cayman […]), […] nm
# Format: biochemical
# Particulars: read-out: IC50 [μM] (SD) / COX-2
Property measured: IC50 (µM)

{"columns": ["Cpd smiles", "Unit tag", "Test value"],
 "data": [
  ["Cc1c2c(OCc3nnc(SCC(=O)N4CCN(c5ccc(Cl)c(Cl)c5)CC4)o3)nn(C)c(=O)c2c(C)n1-c1ccccc1", "µM", 50.3],
  ["CCCCn1c(C)c2c(OCc3nnc(SCC(=O)N4CCN(c5ccc(F)cc5F)CC4)o3)nn(C)c(=O)c2c1C", "µM", 50.1],
  ["CCCCn1c(C)c2c(OCc3nnc(SCC(=O)N4CCN(c5ccc(Cl)c(Cl)c5)CC4)o3)nn(C)c(=O)c2c1C", "µM", 49.5],
  ["Cc1c2c(OCc3nn(CN4CCN(c5ccc(F)cc5F)CC4)c(=S)o3)nn(C)c(=O)c2c(C)n1-c1ccccc1", "µM", 49.7],
  ["CCCCn1c(C)c2c(OCc3nn(CN4CCN(c5cc(C)ccc5C)CC4)c(=S)o3)nn(C)c(=O)c2c1C", "µM", 49.4],
  ["Cc1c2c(OCc3nn(CN4CCN(c5ccc(Cl)c(Cl)c5)CC4)c(=S)o3)nn(C)c(=O)c2c(C)n1-c1ccccc1", "µM", 49.2]
]}
